Readout name: melting point

Examples with their reported melting point follow.
| Smiles entry | melting point |
| --- | --- |
| Cc1cc(C)n(-c2ccccc2)c(=O)c1C(=O)Nc1nc2ccccc2s1 | 163 to 165 °C |
| Cc1cc(C)n(-c2ccc(O)cc2)c(=O)c1C(=O)NC1CCCCCC1 | 232 to 233 °C |
| Cc1cc(C)n(-c2ccc(O)cc2)c(=O)c1C(=O)NC1CCCCC1 | 139 to 140 °C |

Enquiry: Name the reported melting point value associated with the compound `Cc1ccc(-n2c(C)cc(C)c(C(=O)NC3CCCCCC3)c2=O)cc1`
Return: 238 to 240 °C

Enquiry: Name the reported melting point value associated with the compound `Cc1ccc(-n2c(C)cc(C)c(C(=O)NC34CC5CC(CC(C5)C3)C4)c2=O)cc1`
Return: 154 to 155 °C

Enquiry: Name the reported melting point value associated with the compound `Cc1cc(C)n(-c2ccccc2)c(=O)c1C(=O)Nc1nc2ccccc2[nH]1`
Return: 177 to 179 °C

Enquiry: Name the reported melting point value associated with the compound `Cc1cc(C)n(-c2ccccc2)c(=O)c1C(=O)NC1CCCCC1`
Return: 139 to 140 °C

Enquiry: Name the reported melting point value associated with the compound `Cc1ccc(-n2c(C)cc(C)c(C(=O)Nc3nc4ccccc4[nH]3)c2=O)cc1`
Return: 198 to 200 °C

Origin of the recorded values: paper PMC8537746
